Reference source for all entries: patent US20240059673A1

Target: TLR9 (Homo sapiens)
Construct: lymphocytes, monocytes and dendritic cells that express TLR7, TLR8 and TLR9; endogenous in cells; host or cells: cryopreserved human PBMCs from healthy donors
Sequence (Q9NR96 26-1032): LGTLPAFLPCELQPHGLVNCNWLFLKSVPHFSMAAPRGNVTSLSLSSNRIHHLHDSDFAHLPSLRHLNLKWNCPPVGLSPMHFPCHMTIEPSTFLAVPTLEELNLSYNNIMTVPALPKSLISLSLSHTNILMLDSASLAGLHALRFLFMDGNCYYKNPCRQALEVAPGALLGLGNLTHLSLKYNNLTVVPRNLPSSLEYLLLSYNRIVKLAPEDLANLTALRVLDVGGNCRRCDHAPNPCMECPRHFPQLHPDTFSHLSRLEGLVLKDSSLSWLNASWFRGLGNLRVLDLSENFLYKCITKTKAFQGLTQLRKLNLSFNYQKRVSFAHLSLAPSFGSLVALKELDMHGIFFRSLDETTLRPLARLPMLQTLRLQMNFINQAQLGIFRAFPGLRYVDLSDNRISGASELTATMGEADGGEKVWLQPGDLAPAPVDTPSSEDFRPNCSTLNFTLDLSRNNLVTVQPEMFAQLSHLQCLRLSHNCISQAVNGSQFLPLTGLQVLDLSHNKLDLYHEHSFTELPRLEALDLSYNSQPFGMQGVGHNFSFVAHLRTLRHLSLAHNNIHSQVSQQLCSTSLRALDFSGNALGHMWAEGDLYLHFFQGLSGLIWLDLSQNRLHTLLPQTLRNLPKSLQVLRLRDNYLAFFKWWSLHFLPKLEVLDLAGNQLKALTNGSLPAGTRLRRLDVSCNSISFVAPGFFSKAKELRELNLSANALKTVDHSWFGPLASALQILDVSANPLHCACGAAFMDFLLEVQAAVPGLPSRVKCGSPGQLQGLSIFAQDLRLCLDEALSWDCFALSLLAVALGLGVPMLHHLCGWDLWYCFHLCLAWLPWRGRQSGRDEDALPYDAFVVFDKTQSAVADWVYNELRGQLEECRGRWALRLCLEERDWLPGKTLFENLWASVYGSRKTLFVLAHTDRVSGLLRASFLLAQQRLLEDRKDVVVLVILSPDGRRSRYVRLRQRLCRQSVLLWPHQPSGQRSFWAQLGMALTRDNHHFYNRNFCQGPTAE
Experiment: Human PBMC cell-based assay, TLR9 agonist stimulation
Conditions: human PBMCs; same protocol as Example A; Table 3 comparison; read-out: TLR-9 EC50
The following molecules are shown together with reported pEC50 values.
By convention, pEC50 is the negative base-10 log of a molar concentration.

# Molecule, System Name, pEC50
rows = [
    ("Cc1cc(-c2[nH]c3ccc(-c4ccc(N5CCNCC5)nc4)cc3c2C(C)C)cc(C)n1 [Example A, reference compound]", "TLR9 (Homo sapiens)", 6.58),
]

--- query ---
Just so you know, measured pEC50 for Cc1cc(-c2[nH]c3ccc(-c4ccc(N5CCNCC5)nc4)cc3c2C(C)C)cn2ncnc12 [Example B, reference compound] came out at 6.14

###

Target: TLR8 (Homo sapiens, UniProt Q9NR97)
Construct: lymphocytes, monocytes and dendritic cells that express TLR7, TLR8 and TLR9; endogenous in cells
Sequence (Q9NR97 27-1041): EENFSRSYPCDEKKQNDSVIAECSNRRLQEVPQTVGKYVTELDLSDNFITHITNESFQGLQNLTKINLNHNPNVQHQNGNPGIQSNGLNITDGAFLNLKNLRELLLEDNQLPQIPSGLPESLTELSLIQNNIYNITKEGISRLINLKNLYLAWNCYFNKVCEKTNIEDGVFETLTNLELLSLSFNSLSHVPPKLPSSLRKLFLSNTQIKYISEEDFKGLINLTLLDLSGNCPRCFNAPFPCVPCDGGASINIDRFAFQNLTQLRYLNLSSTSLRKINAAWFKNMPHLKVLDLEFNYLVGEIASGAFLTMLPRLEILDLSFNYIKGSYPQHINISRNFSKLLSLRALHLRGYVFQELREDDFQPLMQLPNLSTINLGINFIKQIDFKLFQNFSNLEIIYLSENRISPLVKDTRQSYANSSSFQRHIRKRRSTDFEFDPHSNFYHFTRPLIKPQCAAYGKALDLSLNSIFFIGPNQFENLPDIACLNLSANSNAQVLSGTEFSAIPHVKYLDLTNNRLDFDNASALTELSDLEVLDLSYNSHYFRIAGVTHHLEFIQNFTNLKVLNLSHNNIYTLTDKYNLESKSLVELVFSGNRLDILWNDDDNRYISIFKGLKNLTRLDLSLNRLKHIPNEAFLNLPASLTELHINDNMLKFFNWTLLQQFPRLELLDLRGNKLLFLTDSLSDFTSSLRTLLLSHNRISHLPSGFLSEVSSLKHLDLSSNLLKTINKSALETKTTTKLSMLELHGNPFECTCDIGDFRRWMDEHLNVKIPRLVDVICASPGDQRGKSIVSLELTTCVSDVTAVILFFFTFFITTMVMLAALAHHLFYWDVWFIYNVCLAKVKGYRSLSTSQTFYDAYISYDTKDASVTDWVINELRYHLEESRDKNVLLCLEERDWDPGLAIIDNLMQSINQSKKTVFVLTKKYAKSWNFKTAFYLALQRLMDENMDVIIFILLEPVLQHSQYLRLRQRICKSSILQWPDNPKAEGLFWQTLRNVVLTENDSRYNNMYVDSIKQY
Experiment: TLR8 human PBMC cell-based assay
Settings: human PBMCs; TLR8 agonist Compound A 800 nM; 6 hours; cytokines (TNFa and IL12p40) in supernatant; Table 2; read-out: TLR-8 EC50
Just a reminder that ties go to NOT MET: only EC50 strictly below 20 nM counts as MET.

Example entries and their recorded answers appear below.
# Input Smiles, System Name, Label Value
measured = [
    ("CCc1c(-c2ccc(N3CCNCC3)nc2)[nH]c2cc(-c3cc(C)c4ncnn4c3)ccc12", "TLR8 (Homo sapiens, UniProt Q9NR97)", "NOT MET"),
    ("Cc1c(-c2ccc(N3CCNCC3)nc2)[nH]c2cc(-c3ccc(C#N)c4ncccc34)ccc12", "TLR8 (Homo sapiens, UniProt Q9NR97)", "NOT MET"),
    ("Cc1cc(-c2ccc3c(C)c(-c4ccc(N5CCNCC5)nc4)[nH]c3c2)cc(C)n1", "TLR8 (Homo sapiens, UniProt Q9NR97)", "NOT MET"),
    ("Cc1cc(-c2ccc3c(C)c(-c4cnc(N5CCNCC5)nc4)[nH]c3c2)cc(C)n1", "TLR8 (Homo sapiens, UniProt Q9NR97)", "NOT MET"),
]

# input for lookup
Q. Just wondering, is EC50 of `Cc1c(-c2ccc(N3CCNCC3)nc2)[nH]c2cc(-c3cc(C)c4ncnn4c3)ccc12` below 20 nM?
A. MET

###

Target: TLR9 (Homo sapiens)
Construct: lymphocytes, monocytes and dendritic cells that express TLR7, TLR8 and TLR9; endogenous in cells; host or cells: cryopreserved human PBMCs from healthy donors
Sequence (Q9NR96 26-1032): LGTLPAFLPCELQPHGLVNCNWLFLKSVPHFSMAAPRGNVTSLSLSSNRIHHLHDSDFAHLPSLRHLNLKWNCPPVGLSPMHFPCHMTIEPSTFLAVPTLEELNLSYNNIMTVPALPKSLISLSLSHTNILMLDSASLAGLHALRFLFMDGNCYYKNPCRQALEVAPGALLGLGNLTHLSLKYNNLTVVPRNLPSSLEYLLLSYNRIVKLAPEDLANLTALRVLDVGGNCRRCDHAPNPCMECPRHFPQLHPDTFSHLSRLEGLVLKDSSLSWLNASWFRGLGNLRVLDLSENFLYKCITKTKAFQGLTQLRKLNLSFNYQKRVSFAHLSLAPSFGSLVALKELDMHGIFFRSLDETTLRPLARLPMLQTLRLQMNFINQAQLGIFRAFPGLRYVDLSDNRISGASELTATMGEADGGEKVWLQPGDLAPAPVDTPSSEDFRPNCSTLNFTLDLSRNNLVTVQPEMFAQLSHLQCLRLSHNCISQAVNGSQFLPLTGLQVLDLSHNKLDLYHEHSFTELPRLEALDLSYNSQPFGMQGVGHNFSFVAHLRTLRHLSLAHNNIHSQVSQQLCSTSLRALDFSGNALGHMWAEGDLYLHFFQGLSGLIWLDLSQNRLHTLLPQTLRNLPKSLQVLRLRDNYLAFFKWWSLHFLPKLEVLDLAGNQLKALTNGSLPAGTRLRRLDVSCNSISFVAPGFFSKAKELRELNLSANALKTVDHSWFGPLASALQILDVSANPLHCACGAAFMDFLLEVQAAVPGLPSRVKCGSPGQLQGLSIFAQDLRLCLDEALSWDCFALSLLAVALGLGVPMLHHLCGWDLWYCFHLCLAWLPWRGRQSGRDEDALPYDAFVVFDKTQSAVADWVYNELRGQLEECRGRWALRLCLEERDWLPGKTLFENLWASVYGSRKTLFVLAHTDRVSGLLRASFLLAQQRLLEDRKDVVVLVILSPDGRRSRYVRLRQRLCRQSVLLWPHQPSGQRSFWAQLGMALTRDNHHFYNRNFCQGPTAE
Test: Human PBMC cell-based assay, TLR9 agonist stimulation
Conditions: human PBMCs; TLR9 agonist ODN-2216 3 μM; 6 hours; cytokines (IL-6 and IFNα) in supernatant; Table 2; read-out: TLR-9 EC50
The following compounds are shown together with reported EC50 values.
Write down the numeric answer in nM and omit the unit.

# Input Smiles, Unit Descriptor, Recorded Result
data = [
    ("Cc1cc(-c2ccc3c(C)c(-c4cccc(C(=O)N[C@@H]5CCNC5)c4)[nH]c3c2)cc(C)n1", "nM", 422),
    ("CCN1CCC(c2[nH]c3cc(-c4cc(C)nc(C)c4)ccc3c2C)CC1", "nM", 174),
    ("Cc1cc(-c2ccc3c(C)c(-c4cccc(C(=O)N[C@H]5CCNC5)c4)[nH]c3c2)cc(C)n1", "nM", 97.8),
    ("Cc1cc(-c2cnc3c(C)c(-c4ccc(N5CCNCC5)nc4)[nH]c3c2)cc(C)n1", "nM", 77.4),
]

Entry `Cc1cc(-c2ccc3c(C)c(-c4cnc(N5CCNCC5)nc4)[nH]c3c2)cc(C)n1` , TLR9 (Homo sapiens) data, EC50 value: 34.6

Entry `Cc1cc(-c2ccc3c(C)c(-c4ccc(C(=O)N[C@@H]5CCNC5)cc4)[nH]c3c2)cc(C)n1` , TLR9 (Homo sapiens) data, EC50 value: 430

Entry `CCc1c(-c2ccc(N3CCNCC3)nc2)[nH]c2cc(-c3cc(C)nc(C)c3)ccc12` , TLR9 (Homo sapiens) data, EC50 value: 47.8

Entry `Cc1cc(-c2ccc3c(C)c(-c4ccc(C(=O)N[C@H]5CCNC5)cc4)[nH]c3c2)cc(C)n1` , TLR9 (Homo sapiens) data, EC50 value: 244

Entry `CCc1c(-c2cnc(N3CCNCC3)nc2)[nH]c2cc(-c3cc(C)nc(C)c3)ccc12` , TLR9 (Homo sapiens) data, EC50 value: 37.1

Entry `Cc1cc(-c2ccc3c(C)c(-c4ccc(C(=O)N5CCNCC5)cc4)[nH]c3c2)cc(C)n1` , TLR9 (Homo sapiens) data, EC50 value: 83.6

Entry `Cc1cc(-c2ccc3c(C)c(C4CCN(C(=O)c5cccnc5)CC4)[nH]c3c2)cc(C)n1` , TLR9 (Homo sapiens) data, EC50 value: 2830

Entry `Cc1c(-c2cnc(N3CCNCC3)nc2)[nH]c2cc(-c3cc(C)c4ncnn4c3)ccc12` , TLR9 (Homo sapiens) data, EC50 value: 169

Entry `Cc1noc(C)c1-c1ccc2c(C)c(-c3ccc(N4CCNCC4)nc3)[nH]c2c1` , TLR9 (Homo sapiens) data, EC50 value: 2070

Entry `Cc1c(-c2ccc(N3CCNCC3)nc2)[nH]c2cc(-c3ccnc4ccccc34)ccc12` , TLR9 (Homo sapiens) data, EC50 value: 367

Entry `Cc1cc(-c2ccc3c(C)c(-c4ccc(N5CCN(CCO)CC5)nc4)[nH]c3c2)cc(C)n1` , TLR9 (Homo sapiens) data, EC50 value: 37.8

Entry `Cc1cc(-c2ccc3c(C)c(C4CCN(C(=O)CN(C)C)CC4)[nH]c3c2)cc(C)n1` , TLR9 (Homo sapiens) data, EC50 value: 131

Entry `Cc1c(-c2ccc(N3CCNCC3)nc2)[nH]c2cc(-c3cn[nH]c3)ccc12` , TLR9 (Homo sapiens) data, EC50 value: 467

Entry `Cc1cc(-c2cnc3c(C)c(-c4ccc(N5CCNCC5)cc4)[nH]c3c2)cc(C)n1` , TLR9 (Homo sapiens) data, EC50 value: 134

Entry `Cc1cc(-c2ccc3c(C)c(C4=CCNCC4)[nH]c3c2)cc(C)n1` , TLR9 (Homo sapiens) data, EC50 value: 70.1

Entry `Cc1cc(-c2ccc3c(C)c(-c4ccc(N5CCNCC5)nc4)[nH]c3c2)ccn1` , TLR9 (Homo sapiens) data, EC50 value: 69.3

Entry `Cc1cc(-c2ccc3c(C)c(-c4cccc(C(=O)N5CCNCC5)c4)[nH]c3c2)cc(C)n1` , TLR9 (Homo sapiens) data, EC50 value: 61.3

Entry `Cc1c(-c2ccc(N3CCNCC3)nc2)[nH]c2cc(-c3cc(C)c4ncnn4c3)ccc12` , TLR9 (Homo sapiens) data, EC50 value: 322

Entry `Cc1cc(-c2ccc3c(C)c(-c4ccc(N5CCNCC5)nc4)[nH]c3c2)cc(C)n1` , TLR9 (Homo sapiens) data, EC50 value: 33.2

Entry `Cc1cc(-c2ccc3c(C)c(C4CCN(C(=O)CC5CCNCC5)CC4)[nH]c3c2)cc(C)n1` , TLR9 (Homo sapiens) data, EC50 value: 1300

Entry `Cc1cc(-c2ccc3c(C)c(C4CCN(C(=O)c5cncn5C)CC4)[nH]c3c2)cc(C)n1` , TLR9 (Homo sapiens) data, EC50 value: 3390
